Target: Ubiquitin carboxyl-terminal hydrolase isozyme L1 (Homo sapiens, UniProt P09936)
Sequence (P09936 whole entry): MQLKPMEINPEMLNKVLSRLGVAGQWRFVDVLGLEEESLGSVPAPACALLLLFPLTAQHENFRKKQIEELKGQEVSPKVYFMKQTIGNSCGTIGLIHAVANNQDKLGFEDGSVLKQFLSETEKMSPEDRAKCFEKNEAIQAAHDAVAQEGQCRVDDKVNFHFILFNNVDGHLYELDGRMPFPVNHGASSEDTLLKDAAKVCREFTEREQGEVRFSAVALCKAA
Assay: Inhibition of His-tagged UCH-L1 (unknown origin) expressed in Escherichia coli BL21 (DE3) by fluorescence based analysis
Reported Metric: pIC50
// pIC50: -log10(molar conc.)

Recorded result, `COC(=O)CC[C@H](NC(=O)[C@H](C)NC[C@@H](NC(=O)OCc1ccccc1)C(C)C)C(=O)CF` , pIC50: 5.11

---

Molecular target: Ubiquitin carboxyl-terminal hydrolase 19 (Homo sapiens)
Sequence (O94966 whole entry): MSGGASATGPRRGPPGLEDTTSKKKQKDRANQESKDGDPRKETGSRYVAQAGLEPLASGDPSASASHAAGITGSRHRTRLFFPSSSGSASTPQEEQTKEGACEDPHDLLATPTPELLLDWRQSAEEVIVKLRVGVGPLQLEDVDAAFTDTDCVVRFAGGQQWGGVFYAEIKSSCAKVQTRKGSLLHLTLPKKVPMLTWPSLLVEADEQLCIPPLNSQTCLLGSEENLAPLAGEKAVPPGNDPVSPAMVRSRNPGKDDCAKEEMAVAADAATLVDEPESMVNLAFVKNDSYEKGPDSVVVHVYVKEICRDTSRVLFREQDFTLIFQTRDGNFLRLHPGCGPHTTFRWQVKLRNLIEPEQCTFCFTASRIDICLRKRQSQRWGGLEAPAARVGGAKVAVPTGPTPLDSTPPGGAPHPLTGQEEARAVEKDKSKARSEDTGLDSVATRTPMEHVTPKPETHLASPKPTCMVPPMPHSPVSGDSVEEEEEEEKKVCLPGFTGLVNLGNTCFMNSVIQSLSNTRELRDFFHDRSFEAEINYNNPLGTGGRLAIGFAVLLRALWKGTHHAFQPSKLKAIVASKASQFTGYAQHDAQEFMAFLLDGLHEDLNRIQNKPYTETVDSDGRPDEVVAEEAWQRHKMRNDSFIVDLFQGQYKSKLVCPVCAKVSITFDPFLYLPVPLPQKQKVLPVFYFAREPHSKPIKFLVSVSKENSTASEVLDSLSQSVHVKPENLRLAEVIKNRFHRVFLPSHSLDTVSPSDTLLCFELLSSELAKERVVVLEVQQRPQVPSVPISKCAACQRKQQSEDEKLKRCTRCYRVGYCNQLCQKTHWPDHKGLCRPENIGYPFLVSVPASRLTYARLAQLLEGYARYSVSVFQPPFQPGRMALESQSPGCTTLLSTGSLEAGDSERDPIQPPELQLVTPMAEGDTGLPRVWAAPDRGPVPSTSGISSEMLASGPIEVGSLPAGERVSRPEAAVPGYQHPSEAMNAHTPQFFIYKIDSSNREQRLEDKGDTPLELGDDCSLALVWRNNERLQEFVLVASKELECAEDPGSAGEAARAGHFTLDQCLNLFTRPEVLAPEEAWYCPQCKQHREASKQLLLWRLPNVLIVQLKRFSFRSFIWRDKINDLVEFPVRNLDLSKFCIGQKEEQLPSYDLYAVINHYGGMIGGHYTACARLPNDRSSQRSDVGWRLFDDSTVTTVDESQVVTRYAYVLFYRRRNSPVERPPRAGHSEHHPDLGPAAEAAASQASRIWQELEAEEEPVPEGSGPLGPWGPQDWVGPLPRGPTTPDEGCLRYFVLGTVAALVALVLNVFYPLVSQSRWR
Reported Metric: IC50
Could you kindly put the unit after your number?

Recorded result, `O=C1c2ccccc2C(=O)c2oc(-c3ccc(F)cc3)nc21` , IC50: 880 nM

---

Target: Ubiquitin carboxyl-terminal hydrolase isozyme L1 (Homo sapiens, UniProt P09936)
Sequence (P09936 whole entry): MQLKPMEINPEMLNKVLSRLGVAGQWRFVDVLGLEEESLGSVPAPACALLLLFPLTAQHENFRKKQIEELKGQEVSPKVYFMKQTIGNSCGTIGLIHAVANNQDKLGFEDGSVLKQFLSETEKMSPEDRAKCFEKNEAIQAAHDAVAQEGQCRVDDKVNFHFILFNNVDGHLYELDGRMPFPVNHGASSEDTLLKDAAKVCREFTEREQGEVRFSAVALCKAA
Experiment: Inhibition of human UCH-L1
Reported Metric: pIC50
// pIC50: -log10(molar conc.)

Recorded result, `CCc1ccc(S(=O)(=O)Nc2ccc(-c3ccc(NS(=O)(=O)c4ccc(CC)cc4)cc3)cc2)cc1` , pIC50: 4.82

---

Biological target: Ubiquitin carboxyl-terminal hydrolase isozyme L1 (Homo sapiens, UniProt P09936)
Sequence (P09936 whole entry): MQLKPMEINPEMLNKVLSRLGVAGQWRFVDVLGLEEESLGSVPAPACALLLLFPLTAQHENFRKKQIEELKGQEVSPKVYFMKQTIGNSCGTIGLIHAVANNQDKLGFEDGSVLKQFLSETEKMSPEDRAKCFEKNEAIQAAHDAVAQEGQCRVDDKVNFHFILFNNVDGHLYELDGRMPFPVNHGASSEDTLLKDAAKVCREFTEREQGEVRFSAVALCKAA
Test: Inhibition of recombinant wild type UCH-L1 (unknown origin) by fluorescence based analysis
Reported Metric: IC50
Could you kindly put the unit after your number?

Recorded result, `N#CN1CCC[C@H]1C(=O)N1CCc2c(-c3cn[nH]c3C(F)(F)F)cccc21` , IC50: 0.67 µM
